Values were extracted from PubChem BioAssay AID798.

Molecular target: Coagulation factor XI (Homo sapiens) (UniProt P03951)
Sequence (P03951 19-387 limits assumed): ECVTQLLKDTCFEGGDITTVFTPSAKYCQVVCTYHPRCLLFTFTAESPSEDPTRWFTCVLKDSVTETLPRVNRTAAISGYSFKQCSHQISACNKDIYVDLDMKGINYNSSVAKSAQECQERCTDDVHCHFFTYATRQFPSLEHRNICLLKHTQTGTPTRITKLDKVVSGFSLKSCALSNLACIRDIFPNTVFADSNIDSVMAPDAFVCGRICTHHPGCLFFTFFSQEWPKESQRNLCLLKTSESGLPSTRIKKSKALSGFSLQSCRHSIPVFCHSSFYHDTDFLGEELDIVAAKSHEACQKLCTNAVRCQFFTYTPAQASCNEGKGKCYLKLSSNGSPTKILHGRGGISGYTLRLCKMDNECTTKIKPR
Sequence (P03951 388-625 limits assumed): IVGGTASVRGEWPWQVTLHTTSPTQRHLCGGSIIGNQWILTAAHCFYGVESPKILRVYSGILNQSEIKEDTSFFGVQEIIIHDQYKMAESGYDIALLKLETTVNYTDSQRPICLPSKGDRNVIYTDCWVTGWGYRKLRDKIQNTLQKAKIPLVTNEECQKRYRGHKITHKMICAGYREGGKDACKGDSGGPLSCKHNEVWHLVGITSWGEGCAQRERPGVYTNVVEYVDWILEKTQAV
Assay: factor XIa enzyme inhibition, large library – biochemical, 1536-well, primary screen (AID 798);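 further: fluorescence of freed AMC excited at 355 nm; 0% = enzyme without compound and 100% = no enzyme blank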
Details: purified FXIa, Boc-Glu-Ala-Arg-AMC fluorogenic substrate; at 5 µM; hits give high values
Out of some 220,000 compounds screened, about 300 (0.14%) were called active. The list comes from a sample in which actives are over-represented; it also holds close analogues and randomly drawn compounds.
inhibition values for the compounds below.
Give the value in % but do not write % after it.

compound | inhibition / %
CCOc1cc(CN2CCN(C(=O)CC(C)C)CC2)ccc1OC | -13.4
Cc1cccc2c1N(CCOc1ccccc1)C(=O)C2=O | 1.94
CC(=O)NCC(=O)N1CCCC(C(=O)c2ccc3c4c(cccc24)CC3)C1 (centres undefined) | -4.06
COCCNC(=O)C(c1ccc(O)cc1)N(C(=O)CCC(=O)Nc1nccs1)c1ccc(C)cc1 (centres undefined) | 1.25
CC(C)Cc1nnc(NC(=O)CCC(=O)Nc2ccc3cn[nH]c3c2)s1 | 5.73
COc1cc(-c2nnn(CC(=O)NCc3ccccc3)n2)cc(OC)c1OC | 3

Input CC(=O)NC1(c2ccc(F)cc2)CCN(C(=O)c2c(F)cccc2F)CC1 . Output inhibition: -6.45

Input CCOC(=O)c1nn(-c2ccccc2F)c2nc(Nc3ccccc3)cc(=O)n12 . Output inhibition: -3.73

Input O=C(COc1ccc(Cl)cc1[N+](=O)[O-])N1CCCCC1 . Output inhibition: -5.02
